- subject-of-test: T1, DLG3_3, Q92796
- T1 sequence (Q92796 374-475, limits assumed, looked up): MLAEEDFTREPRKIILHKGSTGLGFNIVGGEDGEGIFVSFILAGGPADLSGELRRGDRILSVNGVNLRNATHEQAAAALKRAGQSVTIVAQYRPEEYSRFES
- procedure-details: holdup assay
- Set-up: key: below the threshold = too weak to quantify, mostly under pKd 3.1 to 4
- condition-label: plain residues with an end cap or a label only (N-terminal biotin on a linker: ado-ado)
measurement-name: pKd

binder | assay-value
ARSAAASNYV [CLDN4, O14493] | below the threshold
DDASLPVSDV [PLEKHA1, Q9HB21] | below the threshold
GEDRSPPTAL [MKNK1, Q9BUB5] | below the threshold
TRKRSGEAAV [PFKM, P08237] | below the threshold
VKRNSKETVV [MARCHF3, Q86UD3] | 4.7
PSHPRLQTHV [KIRREL2, Q6UWL6] | 3.75
PSVGSKKTVL [REELD1, A0A1B0GV85] | below the threshold
DRIQSCLSDA [SBF1, O95248] | below the threshold
DFLSTFHIRI [CIB2, O75838] | below the threshold
QKAPTKEFYA [SDC2, P34741] | below the threshold
SPDRDRESIV [SCN5A, Q14524] | below the threshold
ELSATVTTDC [TRIP6, Q15654] | below the threshold
NTLNRKTTPV [CACNG8, Q8WXS5] | 5.08
SVTSERETNI [SLC16A7, O60669] | below the threshold
ARESQKVSHV [FAM110B, Q8TC76] | below the threshold
NIAESLESLV [PTPRZ1, P23471] | below the threshold
